# Test details: chemical genetic growth profiling, strain panel (AID 1159580);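 also: tested at 20 µM; growth read once vehicle control cultures reached saturation at 30 °C; 1 = growth at the plate median or of vehicle wells; lower values mean less growth of the strain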
# Assay context: S. cerevisiae deletion strains, growth OD, locus YDL040C, strain nat1, hits give low values
Screen size: about 5,500 compounds; about 2,000 (36%) were called active. Another 18% or so got no clear call; they are omitted. This is one part of the list.
This section presents compounds with their documented normalized growth values.
Measurement kind: normalized growth

compound="C[C@]12C=CC(=O)C=C1CCC1C3C[C@@H](O)[C@](O)(C(=O)CO)[C@@]3(C)C[C@H](O)[C@@]12F (stereo partly specified)" measurement_kind="normalized growth" reported=0.992
compound="Cc1ncc([N+](=O)[O-])n1CC(C)O (stereo unspecified)" measurement_kind="normalized growth" reported=0.978
compound=CNC(=O)Oc1ccc2c(c1)[C@]1(C)CCN(C)[C@@H]1N2C measurement_kind="normalized growth" reported=1
compound="CC[C@H](CCC(C)[C@H]1CCC2C3CCC4C[C@@H](O)CC[C@]4(C)C3CC[C@@]21C)C(C)C (stereo partly specified)" measurement_kind="normalized growth" reported=0.991
compound=CC1=C2[C@H]3OC(=O)[C@@H](C)[C@@H]3CC[C@@]2(C)C=CC1=O measurement_kind="normalized growth" reported=0.979
compound=CN1CCN(C2=Nc3ccccc3Oc3ccc(Cl)cc32)CC1 measurement_kind="normalized growth" reported=0.97
compound="COC(=O)CCC(C)[C@H]1CCC2C3C(C[C@H](O)[C@@]21C)[C@@]1(C)CC[C@@H](O)C[C@H]1C[C@H]3O (stereo partly specified)" measurement_kind="normalized growth" reported=1.01
compound="CC(CCC(=O)O)[C@H]1CCC2C3C(C[C@H](O)[C@@]21C)[C@@]1(C)CC[C@@H](O)C[C@H]1C[C@H]3O (stereo partly specified)" measurement_kind="normalized growth" reported=1.02
compound="NC(=O)c1ncn(C2O[C@H](CO)[C@@H](O)[C@H]2O)c1N (stereo partly specified)" measurement_kind="normalized growth" reported=1.03
compound="CC(CCC(=O)O)[C@H]1CCC2C3CC[C@@H]4C[C@H](O)CC[C@]4(C)C3CC[C@@]21C (stereo partly specified)" measurement_kind="normalized growth" reported=1.03
compound="COc1c2ccoc2nc2c(OC)c(OCC(O)C(C)(C)O)ccc12 (stereo unspecified)" measurement_kind="normalized growth" reported=1.01
compound="COc1cc(S(C)=O)ccc1-c1nc2ncccc2[nH]1 (stereo unspecified)" measurement_kind="normalized growth" reported=0.969
compound=COc1c2ccccc2nc2occc12 measurement_kind="normalized growth" reported=0.982
compound="C[C@H](CCC(=O)O)[C@H]1CCC2C3C(CC[C@@]21C)[C@@]1(C)CC[C@@H](O)C[C@H]1C[C@@H]3O (stereo partly specified)" measurement_kind="normalized growth" reported=0.983
compound=CN(C)C(=O)Nc1ccc(Cl)c(Cl)c1 measurement_kind="normalized growth" reported=0.991
compound=CN(C(=O)CN(CCO)CC(=O)N(C)C(C)(C)Cc1ccccc1)C(C)(C)Cc1ccccc1 measurement_kind="normalized growth" reported=1
